Target Entity: AChE (Rattus norvegicus)
Construct: AChE (0.5 U/mg) was extracted from rat cortex; from tissue; host or cells: rat cortex
Assay Summary: biochemical
Test Settings: AChE extracted from rat cortex
Recorded Endpoint: log10(IC50) (log10 of the value in µM)
Plainly stated, the numbers are log10 of IC50 given in µM.

Field: example entries. Status: answers known.
>  <Molecule>
COc1ccc(-c2coc3cc(OCCCCN4CCCCC4)ccc3c2=O)cc1 [compound 3]

>  <Target Entity>
AChE (Rattus norvegicus)

>  <Quantitative Result>
1.67

$$$$
>  <Molecule>
COc1ccc(-c2coc3cc(OCCN4CCCCC4C)ccc3c2=O)cc1 (centres unmarked) [G]

>  <Target Entity>
AChE (Rattus norvegicus)

>  <Quantitative Result>
0.17

$$$$
>  <Molecule>
O=c1c(-c2ccc(OCCN3CCCCC3)cc2)coc2cc(OCCN3CCCCC3)ccc12 [compound 16]

>  <Target Entity>
AChE (Rattus norvegicus)

>  <Quantitative Result>
0.66

$$$$
>  <Molecule>
O=c1c(-c2ccc(O)cc2)coc2cc(OCCN3CCCCC3)ccc12 [compound 14]

>  <Target Entity>
AChE (Rattus norvegicus)

>  <Quantitative Result>
0.99

$$$$

Exercise: Give AChE (Rattus norvegicus) log10(IC50) for COc1ccc(-c2coc3cc(OCCN4CCCCC4)cc(O)c3c2=O)cc1 [compound 1]
Key: 1.01

---

Target Entity: BuChE (Homo sapiens)
Construct: BuChE (3.4 U/mg) was obtained from human plasma; from tissue; host or cells: human plasma
Sequence (P06276 29-602): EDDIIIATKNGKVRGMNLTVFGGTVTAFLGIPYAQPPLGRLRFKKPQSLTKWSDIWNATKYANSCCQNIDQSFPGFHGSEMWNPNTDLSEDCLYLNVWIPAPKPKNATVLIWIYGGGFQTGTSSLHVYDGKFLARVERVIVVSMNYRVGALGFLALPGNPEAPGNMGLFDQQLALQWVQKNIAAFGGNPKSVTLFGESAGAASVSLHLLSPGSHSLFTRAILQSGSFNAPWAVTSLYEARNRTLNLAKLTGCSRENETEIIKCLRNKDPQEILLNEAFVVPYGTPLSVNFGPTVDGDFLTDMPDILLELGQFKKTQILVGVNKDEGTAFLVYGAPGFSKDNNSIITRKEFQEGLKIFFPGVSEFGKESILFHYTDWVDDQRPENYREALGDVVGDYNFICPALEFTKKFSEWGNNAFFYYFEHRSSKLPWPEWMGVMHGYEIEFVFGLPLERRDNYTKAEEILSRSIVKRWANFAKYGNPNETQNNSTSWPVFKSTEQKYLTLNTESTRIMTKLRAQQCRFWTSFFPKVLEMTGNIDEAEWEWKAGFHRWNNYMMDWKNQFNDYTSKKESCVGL
Assay Summary: biochemical
Test Settings: BuChE from human plasma; read-out: IC50 (μM) BuChE
Protocol: To measure in vitro AChE/BuChE activity, modified Ellman's method[27–30] was performed using a 96-well plate reader (BioTek ELx808). AChE (0.5 U/mg) was extracted from rat cortex while BuChE (3.4 U/mg) was obtained from human plasma. Each well contained 50 μl potassium phosphate buffer (KH2PO4/K2HPO4, 0.1 M, pH 8.0), 25 μl test compounds and 25 μl enzyme. […] They were pre-incubated for 60 min at 37 °C, and then 125 μl 5,5′-dithiobis-2-nitrobenzoic acid (DNTB, 3 mM in buffer) was added. […]
Listing of entries alongside the reported IC50.
Numeric only. Scale: µM

>  <Compound>
O=c1c(-c2ccc(OCCN3CCCCC3)cc2)coc2cc(OCCN3CCCCC3)ccc12

>  <Unit Label>
µM

>  <IC50>
5.92

$$$$
>  <Compound>
COc1ccc(-c2coc3cc(OCCCNCCc4c[nH]c5ccc(OC)cc45)ccc3c2=O)cc1

>  <Unit Label>
µM

>  <IC50>
15.6

$$$$
>  <Compound>
O=c1c(-c2ccc(O)cc2)coc2cc(OCCN3CCCCC3)ccc12

>  <Unit Label>
µM

>  <IC50>
7.66

$$$$

Exercise: Form field: IC50 recorded for O=c1c(-c2ccc(O)cc2)coc2cc(OCCN3CCCC3)ccc12 with BuChE (Homo sapiens) (enter value)
Key: 7.19

---

Target Entity: AChE (Rattus norvegicus, UniProt P37136)
Construct: AChE (0.5 U/mg) was extracted from rat cortex; from tissue; host or cells: rat cortex
Sequence (P37136 32-614): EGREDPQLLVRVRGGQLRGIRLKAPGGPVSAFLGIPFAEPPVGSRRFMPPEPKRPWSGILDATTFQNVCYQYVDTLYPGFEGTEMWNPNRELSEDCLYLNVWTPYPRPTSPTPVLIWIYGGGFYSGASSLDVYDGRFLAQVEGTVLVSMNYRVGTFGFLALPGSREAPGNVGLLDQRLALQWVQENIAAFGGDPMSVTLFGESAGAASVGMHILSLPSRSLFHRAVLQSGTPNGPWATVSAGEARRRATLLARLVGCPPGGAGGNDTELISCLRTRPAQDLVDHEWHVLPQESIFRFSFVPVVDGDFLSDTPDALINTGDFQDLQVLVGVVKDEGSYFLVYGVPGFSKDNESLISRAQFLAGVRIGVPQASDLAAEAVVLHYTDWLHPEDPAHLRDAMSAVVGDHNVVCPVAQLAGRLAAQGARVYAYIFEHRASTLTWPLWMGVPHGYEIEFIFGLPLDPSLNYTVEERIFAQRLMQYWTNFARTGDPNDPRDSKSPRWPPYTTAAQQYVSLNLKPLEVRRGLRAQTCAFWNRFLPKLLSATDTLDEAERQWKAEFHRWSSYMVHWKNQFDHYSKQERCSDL
Assay Summary: biochemical
Test Settings: 50 μM compound; AChE extracted from rat cortex; pre-incubated 60 min at 37 °C
Procedure: To measure in vitro AChE/BuChE activity, modified Ellman's method[27–30] was performed using a 96-well plate reader (BioTek ELx808). AChE (0.5 U/mg) was extracted from rat cortex while BuChE (3.4 U/mg) was obtained from human plasma. Each well contained 50 μl potassium phosphate buffer (KH2PO4/K2HPO4, 0.1 M, pH 8.0), 25 μl test compounds and 25 μl enzyme. […] They were pre-incubated for 60 min at 37 °C, and then 125 μl 5,5′-dithiobis-2-nitrobenzoic acid (DNTB, 3 mM in buffer) was added. […]
Criterion: Inhibition % at 50 μM AChE meeting or surpassing 20%. Met: met. Not met: not met.

>  <Smiles Record>
COc1ccc(-c2coc3cc(OCCCCN4CCCCC4)ccc3c2=O)cc1

>  <Class Name>
met

$$$$

Exercise: Threshold query (Inhibition % at 50 μM AChE >= 20%) on C#CCNC(=O)OCCOc1ccc2c(=O)c(-c3ccc(OC)cc3)coc2c1
Key: not met

Exercise: Threshold query (Inhibition % at 50 μM AChE >= 20%) on COc1ccc(-c2coc3cc(OCCN4CCCCC4)cc(O)c3c2=O)cc1
Key: met

Exercise: Entry COc1ccc(-c2coc3cc(OCCNCCc4c[nH]c5ccc(OC)cc45)ccc3c2=O)cc1 : is its Inhibition % at 50 μM AChE no less than 20%?
Key: not met

Exercise: Has O=c1c(-c2ccc(O)cc2)coc2cc(OCCN3CCCC3)ccc12 a recorded Inhibition % at 50 μM AChE greater than or equal to 20%?
Key: met

Exercise: Does the compound COc1ccc(-c2coc3cc(OCCNC45CC6C[C@@](C)(C4)C[C@](C)(C6)C5)ccc3c2=O)cc1 have recorded Inhibition % at 50 μM AChE that is 20% or more?
Key: not met
